test system: non-TNBC breast cancer cell lines; assay: cells; conditions: Homo sapiens, read-out: Median gIC50
measurement-name: pIC50
Would you please state pIC50, meaning minus log10 of the concentration in mol/L, as a bare number?

## Task Report pIC50 for CCOCC1(COCC)CCC(c2n[nH]cc2CN(C)CCNC)CC1 [Compound A]
## Result 5.17

====

tested on: gene expression in Z138 cells; assay: qPCR gene expression (11 genes); format: cell-based; conditions: Homo sapiens, Z-138, 96 h, day 4
measurement-name: EC50

## Task Retrieve EC50 on gene expression in Z138 cells; query CC(=O)N1CCC(Nc2cc(C(=O)NC[C@H](O)CN3CCc4ccccc4C3)ncn2)CC1
## Result 0.022 to 0.332 µM

====

test system: SDMA in Z138 cells; test: SDMA ELISA; format: cell-based; settings: Homo sapiens, Z-138, 72 h; day 3
measurement-name: IC50
Record the result as a number with its unit.

## Task Report IC50 for CC(=O)N1CCC(Nc2cc(C(=O)NC[C@H](O)CN3CCc4ccccc4C3)ncn2)CC1
## Result 4.79 nM
